Listed here: items and their measured cell viability.
- Test system: WHIM2 (cells of a triple-negative basal-like breast cancer xenograft)
- Assay notes: cell viability (% of vehicle); higher = less cytotoxic
- Experimental context: 1 µM; 72 h
Could you respond with only the numeric value?

Please review the entries below; each comes with its answer.
CNCCCC12CCC(c3ccccc31)c1ccccc12.Cl [Maprotiline HCl] | 93.2
COC(=O)NC(C(=O)N1CCCC1c1ncc(-c2ccc(-c3ccc(-c4cnc(C5CCCN5C(=O)C(NC(=O)OC)C(C)C)[nH]4)cc3)cc2)[nH]1)C(C)C (stereo not drawn) | 93.7

Now consider the entry below.
The measured cell viability associated with CSc1ccc2c(c1)N(CCC1CCCCN1C)c1ccccc1S2.Cl (stereo not drawn) [Thioridazine HCl] reads 92.4

====

- Tested on: WHIM2
- Assay notes: cell viability (% of vehicle); higher = less cytotoxic
- Experimental context: 10 µM; 72 h
Property name: cell viability
Keep it simple and answer with nothing but the number.

compound CC(Cn1cnc2c(N)ncnc21)OCP(=O)(O)O (configuration not stated) [Tenofovir] , cell viability observed: 99.3

// cell viability lookup, compound = "O=C(C=Cn1cnc(-c2cc(C(F)(F)F)cc(C(F)(F)F)c2)n1)NNc1cnccn1" , result: 70.9

Recorded cell viability (compound "CCCCCCOC(=O)N=C(N)c1ccc(NCc2nc3cc(C(=O)N(CCC(=O)OCC)c4ccccn4)ccc3n2C)cc1" ): 107

What the record says about Cn1c([N+](=O)[O-])cnc1COC(N)=O [Ronidazole] : cell viability is 90.4

Recorded cell viability (compound O=c1oc2c(O)c(O)cc3c(=O)oc4c(O)c(O)cc1c4c23 [Ellagic acid] ): 118

Lab note: CO[C@H]1C[C@@H]2CC[C@@H](C)[C@@](O)(O2)C(=O)C(=O)N2CCCC[C@H]2C(=O)O[C@H]([C@H](C)C[C@@H]2CC[C@@H](OC(=O)C(C)(CO)CO)[C@H](OC)C2)CC(=O)[C@H](C)/C=C(\C)[C@@H](O)[C@@H](OC)C(=O)[C@H](C)C[C@H](C)/C=C/C=C/C=C/1C [Temsirolimus] gave cell viability of 42.4

For reference, reported cell viability for "NS(=O)(=O)NCC/N=C1\NON\C1=C(\N=O)Nc1ccc(F)c(Br)c1" stands at 88.9

====

- Tested on: HCI01 (cells of a triple-negative basal-like breast cancer xenograft)
- Assay notes: cell viability (% of vehicle); higher = less cytotoxic
- Experimental context: 10 µM; 72 h
Property name: cell viability
Quick one: just the number, no unit, thanks!

Examples from the recorded data:
CN(C)CC(c1ccc(O)cc1)C1(O)CCCCC1.O.O=C(O)CCC(=O)O (centres undefined) [Desvenlafaxine Succinate] | 91
CCOC(=O)c1c(CSc2ccccc2)n(C)c2cc(Br)c(O)c(CN(C)C)c12.Cl [Arbidol HCl] | 82.6
CC(Cc1ccc(O)c(O)c1)(NN)C(=O)O (centres undefined) | 116

Measured cell viability, COC(=O)C1=C(C)NC(C)=C(C(=O)OC(C)C)C1c1cccc2nonc12 (centres undefined) : 111

====

# cell viability of combination per entry
- Test system: WHIM30 (cells of a triple-negative basal-like breast cancer xenograft)
- Assay notes: cell viability of combination (% of vehicle); higher = less cytotoxic
- Experimental context: 1 µM; 72 h; partner dose: 10 nM
Just the number.

# example entries with known answers
COc1cc2c(Nc3ccc(Br)cc3F)ncnc2cc1OCC1CCN(C)CC1 [Vandetanib (ZD6474)] + CC(C)C[C@H](NC(=O)[C@H](CCc1ccccc1)NC(=O)CN1CCOCC1)C(=O)N[C@@H](Cc1ccccc1)C(=O)N[C@@H](CC(C)C)C(=O)[C@@]1(C)CO1 | 15.1
COc1cc2nccc(Oc3ccc(NC(=O)Nc4cc(C)on4)c(Cl)c3)c2cc1OC [Tivozanib (AV-951)] + CC(C)C[C@H](NC(=O)[C@H](CCc1ccccc1)NC(=O)CN1CCOCC1)C(=O)N[C@@H](Cc1ccccc1)C(=O)N[C@@H](CC(C)C)C(=O)[C@@]1(C)CO1 | 18.1

Now for a further molecule.
Consider Cl.Cl.O=C1c2c(O)ccc(O)c2C(=O)c2c(NCCNCCO)ccc(NCCNCCO)c21 [Mitoxantrone HCl] + CC(C)C[C@H](NC(=O)[C@H](CCc1ccccc1)NC(=O)CN1CCOCC1)C(=O)N[C@@H](Cc1ccccc1)C(=O)N[C@@H](CC(C)C)C(=O)[C@@]1(C)CO1 . Its measured cell viability of combination is 5.21

Numbers sourced from the supplement of paper PMC6992640.
